# credit: ChEMBL document CHEMBL1201862

Test system: MDA-N
Assay: NCI tumour cell line growth inhibition, 48 h
Structures can show the parent of a compound that is named as a salt. Calls of active or inactive are those of the source. Cut-off read from the data, not from the text of the source: active = GI50 up to about 1.1 µM and inactive = higher.
Output constraint: value belongs to active, inactive

// param item: `COc1cc(/C=N/Nc2nnc3c4ccccc4c4ncccc4c3n2)cc(OC)c1OC` ; yields the recorded call inactive

// param item: `Cc1ccc2c(O)cc(-c3cc(C)sc3C)nc2n1` ; yields the recorded call active

// param item: O=C(CCC1CCCCN1)Nc1ccc2c(c1)C(=O)c1ccc(NC(=O)CCN3CCCCC3)cc1C2=O (centres undefined) ; yields the recorded call inactive

// param item: COCN1C(N)=C(C(=O)OC(C)(C)C)C2=CC(=O)C=CC21C (centres undefined) ; yields the recorded call inactive

// param item: COC(=O)C1(CCCCl)CCCN1C(=O)OC(C)(C)C (centres undefined) ; yields the recorded call inactive

// param item: `O=c1c2ccc(Cl)cc2oc2c(CNc3ccc(S(=O)(=O)Nc4ncccn4)cc3)cccc12` ; yields the recorded call inactive

// param item: O=C(c1ccccc1)C1C(C(=O)c2ccccc2)N1Cc1ccccc1 (centres undefined) ; yields the recorded call inactive

// param item: `Cc1cccc(Nc2nc(NNC(=O)Cc3ccccc3)nc(NNC(=O)c3ccncc3)n2)c1` ; yields the recorded call inactive

// param item: `CC(C)(C)c1ccc2c(c1)C#Cc1cc3c(cc1OCCCO2)C#Cc1cc(C(C)(C)C)ccc1OCCCO3` ; yields the recorded call inactive

// param item: `Cc1[nH]c2ccccc2c1/C=N/c1ccc(Oc2ccccc2)cc1` ; yields the recorded call inactive

// param item: `O=C(Cc1ccccc1)NNc1nc(NNC(=O)c2ccncc2)nc(Nc2ccccc2)n1` ; yields the recorded call inactive

// param item: CC(=O)NCCCCCCNC(C)=O [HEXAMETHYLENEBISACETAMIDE] ; yields the recorded call inactive

// param item: `Cc1cc2nc(N3C(=O)/C(=C/c4ccc(N(C)C)cc4)N=C3c3ccccc3)sc2cc1C` ; yields the recorded call inactive

// param item: `CC(=O)Nc1ccc2c(c1)/C(=C\c1ccc([N+](C)(C)C)cc1)c1ccccc1-2` ; yields the recorded call inactive

// param item: `c1ccc(/N=c2/sc3ccccc3s/c2=N/c2ccccc2)cc1` ; yields the recorded call inactive

// param item: `CCSC1=N/C(=C\c2ccco2)C(Nc2ccc(C)cc2)=N1` ; yields the recorded call inactive

// param item: CC1=C(C(=O)OC(C)C)C(c2ccccc2C(F)(F)F)C(C(=O)OC(CO[N+](=O)[O-])CO[N+](=O)[O-])=C(C)N1 (centres undefined) ; yields the recorded call inactive

// param item: `O=C1c2ccccc2/C=C\C(c2ccccc2)=N/N1c1ccccc1Cl` ; yields the recorded call inactive

// param item: `CCN(CC)CCC(=O)c1ccc(Sc2ccc(F)cc2)cc1` ; yields the recorded call inactive

// param item: `Cc1ccccc1NC(=O)O/N=C(\Cl)C(C)C` ; yields the recorded call inactive

// param item: CC(=O)OCC(OC(C)=O)C1C[C@H]2O[C@@H]3[C@H](C[C@H]2O1)O[C@@]1(C[C@@H]3C)C[C@H](C)[C@@H]2O[C@]3(C[C@@H]2O1)C[C@H]1O[C@H]2[C@H](C)[C@H]4OC(=O)C[C@H]5CC[C@@H]6OC7[C@H]8O[C@]9(CC[C@H]%10CC(=O)[C@H](CC[C@H]%11C[C@@H](C)C(=O)C(C[C@@H]4O[C@H]2C[C@H]1O3)O%11)O%10)CC8O[C@@H]7[C@@H](O9)[C@H]6O5 (some centres undefined) ; yields the recorded call active

// param item: `O=C1c2ccccc2-c2nnc(-c3ccc([N+](=O)[O-])cc3)cc21` ; yields the recorded call inactive

// param item: COC(=O)c1c(C)cccc1C1CN=NC12Cc1ccccc1C2=O (centres undefined) ; yields the recorded call inactive

// param item: `CCOC(=O)N/N=C(\Cc1ccc([N+](=O)[O-])cc1)OCC` ; yields the recorded call inactive

// param item: `COc1ccccc1Nc1nc(N)nc(N)c1N=O` ; yields the recorded call inactive

// param item: `O=C(O)CSc1ncccc1[N+](=O)[O-]` ; yields the recorded call inactive

// param item: `COc1ccc(-c2nnc3n(Cc4ccccc4)c4ccccc4n3c2=O)cc1` ; yields the recorded call inactive

// param item: `Cc1cc(O)c(O)c(Oc2cc(C)cc(O)c2O)c1` ; yields the recorded call inactive

// param item: `CCOn1c(C2(CC3CCN(C(=O)c4ccccc4)CC3)OCCO2)cc2ccccc21` ; yields the recorded call inactive

// param item: `COc1ccc(OC)c(NC(=O)C(=O)Nn2c(S)nc3ccccc3c2=O)c1` ; yields the recorded call inactive

// param item: `CCOC(=O)C[C@@H]1C2(C=C[C@@]13CO3)OCC(C)(C)CO2` ; yields the recorded call inactive

// param item: `CSc1ccc(/C=C2\N=C(c3ccccc3)N(c3nc4cc(Cl)c(F)cc4s3)C2=O)cc1` ; yields the recorded call inactive

// param item: CC(NC(=O)c1ccc(Cl)c(Cl)c1)c1ccc(-c2ccccc2)cc1 (centres undefined) ; yields the recorded call inactive

// param item: COP(=O)(OC)C(Cc1cn(C(C)=O)c2ccccc12)C(=O)O (centres undefined) ; yields the recorded call inactive

// param item: COc1ccc2c(=O)c3ccoc3n(CC=C(C)C)c2c1 [ACROPHYLLINE] ; yields the recorded call inactive

// param item: `Cc1cc(S(=O)(=O)Nc2nnc3c4ccccc4cnn23)c(S)cc1Cl` ; yields the recorded call inactive

// param item: N=C(N)C1CN(CCc2c[nH]cn2)C(=O)NC1=O (centres undefined) ; yields the recorded call inactive

// param item: CN(C)CCOC(c1ccccc1)c1ccccc1 [DIPHENHYDRAMINE HYDROCHLORIDE] ; yields the recorded call inactive

// param item: `Cc1ccc2c(c1)-c1c(C#N)c(N)nc(-c3ccc(Cl)cc3)c1CCS2(=O)=O` ; yields the recorded call inactive
